Reference for the values: ChEMBL document CHEMBL5308504

Biological target: Peregrin (Homo sapiens) (UniProt P55201)
Conditions: Compound concentration 20.0 uM, Protein concentration 2.0 uM, Result type QC Liability
recorded metric: ΔTm (°C)
Please give a number only; it is taken to be in °C.

These recorded examples may help you get a feel for the data.
>>> df
                                   molecule  measured_number
0  O=C(Nc1ccc(C(O)(C(F)(F)F)C(F)(F)F)cc1)c1ccc(C(F)(F)F)cc1             0.72
1  C[C@@H]1OCC2(CCN(c3cnc(Sc4ccnc(N)c4Cl)c(N)n3)CC2)[C@@H]1N            -1.53
2  CNC(=O)c1ccc(C)c(-n2c(C)cc(OCc3ccc(F)cc3F)c(Br)c2=O)c1            -1.84
3  COc1cc(Nc2cnc(C#N)c(O[C@H](C)CN(C)C)n2)ncc1-c1cnn(C)c1            -0.27
4  COc1ccc(F)c(F)c1C(=O)c1cnc(NC2CCN(S(C)(=O)=O)CC2)nc1N            -0.92

### Prompt I'd like to know its ΔTm. The molecule in question is CCCCCNC(=O)N1CCC(CN(Cc2ccc(Cl)cc2)Cc2ccc([N+](=O)[O-])s2)C1 (configuration not stated)
### Response -0.19

### Prompt I'd like to know its ΔTm. The molecule in question is COc1ccc(COc2ccc(Cc3cnc(N)nc3N)cc2OC)cc1
### Response -1.34

* * *

Target: Peregrin (Homo sapiens)
Sequence (whole entry): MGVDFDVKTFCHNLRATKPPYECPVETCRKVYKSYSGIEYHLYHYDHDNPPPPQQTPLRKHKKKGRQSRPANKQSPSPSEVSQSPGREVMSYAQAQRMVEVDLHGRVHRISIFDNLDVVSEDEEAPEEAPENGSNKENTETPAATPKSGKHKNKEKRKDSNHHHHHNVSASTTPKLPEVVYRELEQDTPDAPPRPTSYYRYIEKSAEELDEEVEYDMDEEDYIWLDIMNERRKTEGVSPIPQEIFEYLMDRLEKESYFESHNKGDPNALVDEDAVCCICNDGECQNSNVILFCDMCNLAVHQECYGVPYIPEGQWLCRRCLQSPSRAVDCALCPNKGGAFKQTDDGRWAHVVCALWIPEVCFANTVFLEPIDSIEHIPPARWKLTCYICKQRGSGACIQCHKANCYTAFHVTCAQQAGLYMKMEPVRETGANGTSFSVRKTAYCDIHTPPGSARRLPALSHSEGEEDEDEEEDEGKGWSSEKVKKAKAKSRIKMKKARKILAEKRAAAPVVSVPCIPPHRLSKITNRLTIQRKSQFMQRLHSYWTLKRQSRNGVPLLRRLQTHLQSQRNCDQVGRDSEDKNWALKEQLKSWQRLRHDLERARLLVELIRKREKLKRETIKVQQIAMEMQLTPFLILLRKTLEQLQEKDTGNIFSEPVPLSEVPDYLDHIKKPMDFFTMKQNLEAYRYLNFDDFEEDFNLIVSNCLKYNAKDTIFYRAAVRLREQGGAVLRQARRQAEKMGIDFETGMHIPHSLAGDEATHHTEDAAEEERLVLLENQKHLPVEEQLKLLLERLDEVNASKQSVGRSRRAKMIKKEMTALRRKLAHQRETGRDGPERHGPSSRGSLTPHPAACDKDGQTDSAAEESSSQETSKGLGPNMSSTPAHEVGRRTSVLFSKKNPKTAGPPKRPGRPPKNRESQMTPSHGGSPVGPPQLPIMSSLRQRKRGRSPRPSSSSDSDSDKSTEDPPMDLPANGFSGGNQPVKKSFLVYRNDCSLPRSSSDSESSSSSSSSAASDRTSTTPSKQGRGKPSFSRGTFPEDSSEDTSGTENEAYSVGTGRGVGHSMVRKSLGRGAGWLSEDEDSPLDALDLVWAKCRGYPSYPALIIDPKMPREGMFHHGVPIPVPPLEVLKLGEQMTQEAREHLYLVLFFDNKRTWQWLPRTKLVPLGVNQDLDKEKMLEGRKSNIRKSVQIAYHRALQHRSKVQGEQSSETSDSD
Conditions: Compound concentration 20.0 uM, Protein concentration 2.0 uM, Result type QC Liability
recorded metric: ΔTm
Express your answer as a number followed by its unit.

In [3]: df
Out[3]:
                                   compound  recorded_metric    result
0  O=C(Nc1cc2cc[nH]c(=O)c2cc1Cl)[C@H]1CNC[C@@H]1c1cccnc1              ΔTm  -0.61 °C
1  CC#CCC(C)[C@H](O)/C=C/[C@@H]1[C@H]2C/C(=C/CCCC(=O)O)C[C@H]2C[C@H]1O (some centres undefined)              ΔTm  -2.03 °C
2  CNC(=O)c1c[nH]c2ccc(Nc3nccc(-c4ccccn4)n3)cc12              ΔTm  -0.15 °C
3  CN(C)c1ncc2cc(-c3ccc(-c4ncccc4F)cc3Cl)c(=O)n(C[C@H]3OC[C@H](N)CO3)c2n1              ΔTm  -1.55 °C
4  O=C(Nc1ccnc(NC(=O)C2CC2)c1)c1c(Cl)cccc1Cl              ΔTm  -1.28 °C

### Prompt I'd like to know its ΔTm. The compound in question is CCCCCCC(Sc1nc(Cl)cc(NCc2ccc(-c3ccccc3)cc2)n1)C(=O)O (centres undefined)
### Response -6.38 °C

### Prompt I'd like to know its ΔTm. The compound in question is CCn1c(CNC(=O)c2nc(Cl)cnc2N)[n+](CC)c2ccc(C(=O)N(C)CCN(C)C)cc21
### Response -1.87 °C

### Prompt I'd like to know its ΔTm. The compound in question is NC1(c2ccc(-c3nc4c(O)ccnn4c3-c3ccccc3)cc2)CCC1
### Response 0.22 °C

### Prompt I'd like to know its ΔTm. The compound in question is CN1Cc2nccc(-c3cn(C)nc3-c3ccc(F)cc3)c2C1=O
### Response -1.84 °C
